- study-system: Voltage-gated inwardly rectifying potassium channel KCNH2 (Homo sapiens)
- test-method-notes: Human Ether-a-go-go-Related Gene (hERG) channel small molecule antagonists: fluorescence cell-based qHTS assay (AID 1671200); note: nearly all actives have a fitted effect of over 50% in size
- experimental-setup: hERG-U2OS cells, FluxOR thallium flux fluorescence; series mostly up to 76.8 µM
Records with an inconclusive call do not appear. Active and inactive are the calls of the source. Calls come from the whole dose curve; as a rule, active = well fitted inhibition curve with a large enough effect in the repeat runs; inconclusive = weak or mixed curves; inactive = flat fitted curve, though single readings scatter.
Return exactly one item of active, inactive

Recorded test call requested for `Oc1cccc(Cl)c1Cl`
inactive

Now the compound `[O]=[Cr](=[O])([OH])[O][Cr](=[O])(=[O])[OH]`
inactive

Now the compound `COc1ccc(Cc2nccc3cc(OC)c(OC)cc23)cc1OC`
inactive

Now the compound `C#CCO`
inactive

Now the compound `S=C=NCCc1ccccc1`
active

Now the compound ClC1(Cl)C2(Cl)C3(Cl)C4(Cl)C(Cl)(Cl)C5(Cl)C3(Cl)C1(Cl)C5(Cl)C24Cl (configuration not stated)
inactive

Now the compound `Cc1ccn2nc(S(=O)(=O)Nc3c(F)cccc3F)nc2n1`
inactive

Now the compound CCOP(=S)(OCC)SC(CCl)N1C(=O)c2ccccc2C1=O (configuration not stated)
inactive

Now the compound `BrCCCBr`
inactive

Now the compound CC(Cc1ccc(OCC(=O)O)cc1)NCC(O)c1csc(C(F)(F)F)n1 (configuration not stated)
inactive

Now the compound `CN=C=O`
inactive

Now the compound COP(=S)(NC(C)C)Oc1ccc(C)cc1[N+](=O)[O-] (configuration not stated)
inactive

Now the compound `CCOP(=O)(OCC)Oc1nc(Cl)c(Cl)cc1Cl`
inactive

Now the compound FC(F)C(F)(F)OCC(Cn1cncn1)c1ccc(Cl)cc1Cl (configuration not stated)
inactive

Now the compound `NC(=O)C(Cl)Cl`
inactive

Now the compound `CO/N=C(/C1=NOCCO1)c1ccccc1Oc1ncnc(Oc2ccccc2Cl)c1F`
inactive

Now the compound `COC(=O)c1cc(Oc2ccc(Cl)cc2Cl)ccc1[N+](=O)[O-]`
active

Now the compound NC1CCC(CC2CCC(N)CC2)CC1 (configuration not stated)
inactive

Now the compound `O=C(Nc1ccc(F)cc1F)c1cccnc1Oc1cccc(C(F)(F)F)c1`
inactive

Now the compound `CC(=O)[O-].CC(=O)[O-].O.O.[Zn+2]`
inactive

Now the compound `Nc1ccc(N=Nc2ccccc2)cc1`
inactive

Now the compound `O=[N+]([O-])[O-].[Tl+]`
inactive

Now the compound `C=CC(=O)[O][Sn]([CH2]CCC)([CH2]CCC)[CH2]CCC`
active

Now the compound `CCCN`
inactive

Now the compound `CC(C)(C)c1ccc(OP(=O)(Oc2ccccc2)Oc2ccccc2)cc1`
active

Now the compound CC[N+]1(CC)CCC(OC(=O)C(O)(c2ccccc2)c2ccccc2)C1 (configuration not stated)
inactive

Now the compound `Oc1ccc([C@H]2CNCc3c2ccc(O)c3O)cc1O`
inactive

* * *

- test-method-notes: qHTS assay to identify small molecule antagonists of the TGF-beta/Smad signaling pathway - cell viability counter screen (AID 1346824); note: nearly all actives have a fitted effect of over 50% in size
- experimental-setup: SBE-bla HEK293T viability, CellTiter-Glo luminescence; series mostly up to 76.8 µM
- From the text: U.S. Tox21 Program National Center for Advancing Translational Sciences [NCATS] NIH Chemical Genomics Center [NCGC] U.S. Environmental Protection Agency [EPA] National Institutes of Environmental Health Sciences [NIEHS] National Toxicology Program [NTP] U.S. Food and Drug Administration [FDA] […]
Records with an inconclusive call do not appear. The source made the active and inactive calls. Calls come from the whole dose curve; as a rule, active = well fitted cell-killing curve with a large enough effect in the repeat runs; inconclusive = weak or mixed curves; inactive = flat fitted curve, though single readings scatter.
Return exactly one item of class 1 for active, class 0 for inactive

Recorded test call requested for CCNc1nc(NC(C)C(C)C)nc(SC)n1 (stereo not drawn)
class 0

Now the compound `Oc1ccc([C@H]2CNCc3c2ccc(O)c3O)cc1O`
class 0

Now the compound CC(C)NCC(O)c1ccccc1Cl (stereo not drawn)
class 0

Now the compound `Cc1ccccc1OP(=O)(Oc1ccccc1C)Oc1ccccc1C`
class 0

Now the compound `O=S(=O)(NS(=O)(=O)C(F)(F)F)C(F)(F)F`
class 0

Now the compound CCC(C)Nc1c([N+](=O)[O-])cc(C(C)(C)C)cc1[N+](=O)[O-] (stereo not drawn)
class 0

Now the compound `COc1nc(C)nc(NC(=O)NS(=O)(=O)c2ccccc2Cl)n1`
class 0

Now the compound `Clc1ccc(C2(Cn3cncn3)OCCO2)c(Cl)c1`
class 0

Now the compound `CCCCON=O`
class 0

Now the compound CN1CCc2cc3c(cc2C1O)OCO3 (stereo not drawn)
class 0

Now the compound `NC(=O)C(Cl)Cl`
class 0

Now the compound `O=C1C[C@@H]2OCC=C3CN4CC[C@]56c7ccccc7N1[C@H]5[C@H]2[C@H]3C[C@H]46`
class 0

Now the compound `CNC(=O)Oc1cc(C)cc(C(C)C)c1`
class 0

Now the compound `COCCC#N`
class 0

Now the compound `CCN(CC)CCN1C(=O)CN=C(c2ccccc2F)c2cc(Cl)ccc21`
class 0

Now the compound `c1cc[n+]2c(c1)-c1cccc[n+]1CC2`
class 0

Now the compound `CSC(C)(C)/C=N/O`
class 0

Now the compound `C[C@]12CC[C@H]3[C@@H](CCC4=CC(=O)CC[C@@H]43)[C@@H]1CC[C@@H]2OC(=O)CCc1ccco1`
class 0

Now the compound CCC(C)Br (stereo not drawn)
class 0

Now the compound `Nc1ccccc1-c1ccccc1`
class 0

Now the compound `O=P(Cl)(Cl)Cl`
class 0

Now the compound `C#CC1(O)CCCCC1`
class 0

Now the compound `N#Cc1sc2c(=O)c3ccccc3c(=O)c=2sc1C#N`
class 1

Now the compound `CCN(CC)C(=S)S`
class 0

Now the compound `CC(C)=CCN1CC[C@@]2(C)c3cc(O)ccc3C[C@@H]1[C@@H]2C`
class 0

Now the compound `CNC(=O)/C=C(\C)OP(=O)(OC)OC`
class 0

Now the compound `C=CC(=C)C`
class 0

Now the compound CCn1cc[n+](C)c1 (tested in a mixture with another compound)
class 0
